This collection of values is drawn from patent US20260008852A1.

target or test system: T1, His-tagged human B7-H3 (human, UniProt Q5ZPR3-2 29-245, limits assumed)
T1 construct: Bought His-tagged protein coated on the ELISA plate; also called hu B7-H3; CD276
T1 sequence (looked up): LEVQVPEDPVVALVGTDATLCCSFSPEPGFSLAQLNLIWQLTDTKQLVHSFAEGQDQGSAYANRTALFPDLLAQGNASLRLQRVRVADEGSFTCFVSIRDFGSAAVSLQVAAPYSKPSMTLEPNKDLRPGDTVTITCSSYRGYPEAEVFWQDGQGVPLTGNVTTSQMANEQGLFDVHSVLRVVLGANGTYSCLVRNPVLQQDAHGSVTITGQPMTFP
run description: ELISA, coated His-tagged antigen, scFv-Fc 1 ug/ml
measured parameter: ELISA OD450 @ 1 ug/ml (OD450)
Unit OD450 implied. Number only.

What the record says about 40579p1.B8 (scFv, V domains shown, Tested as scFv-Fc (Expi293 supernatant)) VH: EVQLLESGGGLVQPGGSLRLSCAASGFTFSDYYMSWVRQAPGKGLEWVSGISMSSTIYYADSVKGRFTISRDNSKNTLYLQMNSLRAEDTAVYYCARHRSPYQYRSMDVWGQGTTVTVSS VL: EIVLTQSPGTLSLSPGERATLSCRASQSVNSKLAWYQQKPGQPPSLLIYDASRRATGIPDRFSGSGSGTEFTLTISSLQSEDFAVYYCQQYNNWPPLTFGGGTKVEIK : ELISA OD450 @ 1 ug/ml is 2.21

What the record says about 40633p1.2.A10 (scFv, V domains shown, Tested as scFv-Fc (Expi293 supernatant)) VH: EVQLLESGGGLVQPGGSLRLSCAASGFTVSYYGMSWVRQAPGKGLEWVSVIKQDGSEEYYADSVKGRFTISRDNSKNTLYLQMNSLRAEDTAVYYCARHWNDYSNGMNVWGQGTTVTVSS VL: QSVLTQPPSASGTPGQRVTISCSGSTSNVGDRYVYWYQQLPGTAPKLLIYLDDQRPSGVPDRFSGSKSGTSASLAISGLQSEDEADYYCASWDASLNGWVFGGGTKLTVL : ELISA OD450 @ 1 ug/ml is 2.14

What the record says about 40633p1.1.A11 (scFv, V domains shown, Tested as scFv-Fc (Expi293 supernatant)) VH: EVQLLESGGDLVQPGGSLRLSCAASGFTFNTYWMNWVRQAPGKGLEWVAGINSKGGVTYYADSVKGRFTISRDNSKNTLYLQMNSLRAEDTAVYYCADWNDYDIMDVWGQGTTVTVSS VL: QSVLTQPPSASGTPGQTITISCSGSSSNVGRRTVNWYQQLPGTAPKLLIYTNAQRPSGVPDRFSGSKSGTSASLAISGLQSEDEADYYCATWDDSLNAWVFGGGTKLTVL : ELISA OD450 @ 1 ug/ml is 2.08
